Attribution: the supplement of paper PMC10567573

test: protein stability index of a GFP-peptide fusion (GPS, HEK-293T) (PSI 1-6); higher = more stable; settings: treatment: DMSO; c terminus: a fixed tail appended;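 also: 24-mer peptide tiles fused after GFP, lentivirally expressed, FACS-sorted into six equal bins by GFP/DsRed ratio, decoded by Illumina sequencing, PSI is the read-weighted mean bin number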
Entries get a class label from measured protein stability index. See ranges: A (below 3), B (3 to below 4), C (4 or more)

>  <ITEM_SEQUENCE>
SILTDNPTWIIDPIDGTTNFVHRF [IMPA1]

>  <CLASSIFICATION>
A

$$$$
>  <ITEM_SEQUENCE>
DDEEVDTHFASQEFFSANAISDQL [ADAMTSL2]

>  <CLASSIFICATION>
C

$$$$
>  <ITEM_SEQUENCE>
GPGPQLRRGWRPSSREDSLEAGLP [CHGA]

>  <CLASSIFICATION>
B

$$$$
>  <ITEM_SEQUENCE>
GGLLSYDEGGITKQPPVTQSKTAS [FBF1]

>  <CLASSIFICATION>
C

$$$$
>  <ITEM_SEQUENCE>
SQVRALDRFQVPTTEVNAWLVHRD [NFE2L1]

>  <CLASSIFICATION>
B

$$$$
>  <ITEM_SEQUENCE>
DYFERNWEPRRDMWVRFRAFEAAR [ZSWIM9]

>  <CLASSIFICATION>
A

$$$$
>  <ITEM_SEQUENCE>
VVGFDLELGQAVEVIYPQHSKLTD [DENND6A]

>  <CLASSIFICATION>
A

$$$$
>  <ITEM_SEQUENCE>
ALALQARGCSVKIWTAHYDPGHCF [ALG2]

>  <CLASSIFICATION>
A

$$$$
>  <ITEM_SEQUENCE>
EPPQDSHSRKTVLIKTIETRNGEV [PRPH]

>  <CLASSIFICATION>
C

$$$$
>  <ITEM_SEQUENCE>
DRYIAICNPLRYSVLMGHGVCMGL [OR10K2]

>  <CLASSIFICATION>
A

$$$$

* * *

test: protein stability index of a GFP-peptide fusion (GPS, HEK-293T) (PSI 1-6); higher = more stable; conditions: treatment: MLN4924 1 uM, 8 h; c terminus: a fixed tail appended
Entries get a class label from measured protein stability index. See ranges: bottom range = under 3, center range = from 3 up to 4, top range = 4 and over

>  <ITEM_SEQUENCE>
VTLQCLAARALDKNKIPYKGFIPE [FEM1A]

>  <CLASSIFICATION>
bottom range

$$$$
>  <ITEM_SEQUENCE>
DAILYYYQSGGRLKRPVNVPFDIF [KCNA4]

>  <CLASSIFICATION>
bottom range

$$$$
>  <ITEM_SEQUENCE>
LRFLHENQLTHTDLKPENILFVNS [CLK3]

>  <CLASSIFICATION>
bottom range

$$$$
>  <ITEM_SEQUENCE>
CGPPSLGAVLALVAIFIMSLNKRH [MFSD9]

>  <CLASSIFICATION>
center range

$$$$
>  <ITEM_SEQUENCE>
QGHLRRLRSRYSVASFKFDAGEVS [MYORG]

>  <CLASSIFICATION>
center range

$$$$
>  <ITEM_SEQUENCE>
HQRKYTQSFCGENIMMPMGGMMPP [ZNF207]

>  <CLASSIFICATION>
bottom range

$$$$
>  <ITEM_SEQUENCE>
LWSDPMAQEGCKANTIRGGGCYFG [PPEF2]

>  <CLASSIFICATION>
bottom range

$$$$
>  <ITEM_SEQUENCE>
MLTTRVFSLVGKRAISTSVCVRAH [COX4I1]

>  <CLASSIFICATION>
bottom range

$$$$
>  <ITEM_SEQUENCE>
DETLSSSHQKCPQLGGPEASGGLV [PLEKHN1]

>  <CLASSIFICATION>
top range

$$$$
>  <ITEM_SEQUENCE>
PQDQAGPGGAPRVASRNLFPKDTL [CLPTM1]

>  <CLASSIFICATION>
top range

$$$$
>  <ITEM_SEQUENCE>
SLFSQALKDEEAKVLQLTVRCEAL [CCDC89]

>  <CLASSIFICATION>
bottom range

$$$$
>  <ITEM_SEQUENCE>
EVSCQCQLHPPRWYSRLQACQWGG

>  <CLASSIFICATION>
bottom range

$$$$
>  <ITEM_SEQUENCE>
RTSSGNVWVTHEEMETLETSTKTD [PPFIA4]

>  <CLASSIFICATION>
top range

$$$$
>  <ITEM_SEQUENCE>
HYGGVVSLIPLILDLMKEWIAHSE [SPACA9]

>  <CLASSIFICATION>
bottom range

$$$$
>  <ITEM_SEQUENCE>
SEAAIGGAMLGQTTSEEAVGGATP [HDAC6]

>  <CLASSIFICATION>
top range

$$$$
>  <ITEM_SEQUENCE>
VAVLKGEQEKEAQHKDQTAALPLA [MAP2]

>  <CLASSIFICATION>
top range

$$$$
>  <ITEM_SEQUENCE>
PGAGVPSGSGGTVAPATMGSARSH [ZBTB22]

>  <CLASSIFICATION>
top range

$$$$
>  <ITEM_SEQUENCE>
ERQDMYQCLVEGCTEKFKTSRDRK [ZNF511]

>  <CLASSIFICATION>
top range

$$$$
>  <ITEM_SEQUENCE>
SIVTAAKKDILLVNDHLLNFVRER [PDS5B]

>  <CLASSIFICATION>
bottom range

$$$$
>  <ITEM_SEQUENCE>
EENALWEEERAFWMENNGHVAGEQ [CCDC70]

>  <CLASSIFICATION>
top range

$$$$
>  <ITEM_SEQUENCE>
TQKLSHSTKPSGSPLEEKHDQCKC [MATN2]

>  <CLASSIFICATION>
top range

$$$$
>  <ITEM_SEQUENCE>
KIIICSQNEEYLLTYINEDRISTT [PLK2]

>  <CLASSIFICATION>
bottom range

$$$$
>  <ITEM_SEQUENCE>
DKVRALEEANADLEVKIHDWYQKQ [KRT15]

>  <CLASSIFICATION>
top range

$$$$
>  <ITEM_SEQUENCE>
GDVAIKLKFLEENKIKVMHKQLLL [ARFIP2]

>  <CLASSIFICATION>
bottom range

$$$$
>  <ITEM_SEQUENCE>
GEQDCCGERVVINISGLRFETQLK [KCNA3]

>  <CLASSIFICATION>
bottom range

$$$$
>  <ITEM_SEQUENCE>
TRWCHIVRDSDSLAESEFESAAFS [PHTF1]

>  <CLASSIFICATION>
center range

$$$$
>  <ITEM_SEQUENCE>
RQLDPSNCLGIRAFADTHSCRELL [KLHL20]

>  <CLASSIFICATION>
center range

$$$$
>  <ITEM_SEQUENCE>
LAPNFRWAIPNRQINDGMGGDGDD [BEX3]

>  <CLASSIFICATION>
top range

$$$$
>  <ITEM_SEQUENCE>
VEGFRVTLVDEGDLYNWEVAIFGP [CDC34]

>  <CLASSIFICATION>
bottom range

$$$$
>  <ITEM_SEQUENCE>
AKKEDKVPVKKQKTRTVFSSTQLC [NANOGP8]

>  <CLASSIFICATION>
top range

$$$$
>  <ITEM_SEQUENCE>
MAAGSTTLHAVEKLQVRLATKTEP [ELOA2]

>  <CLASSIFICATION>
center range

$$$$
>  <ITEM_SEQUENCE>
HNRKKHLNGLQHLKAKKVWYDMFR [ZMAT5]

>  <CLASSIFICATION>
bottom range

$$$$
>  <ITEM_SEQUENCE>
ELAYLRKNHEEEMLALRGQTGGDV [KRT16]

>  <CLASSIFICATION>
top range

$$$$
>  <ITEM_SEQUENCE>
DPHNSRRGFFFSHVGWLLVRKHPA [SCD]

>  <CLASSIFICATION>
bottom range

$$$$
>  <ITEM_SEQUENCE>
DLRSGTLYSLTLYGLRGPHKADSI [TNXB]

>  <CLASSIFICATION>
bottom range

$$$$
>  <ITEM_SEQUENCE>
PKTVQQPTESEPVTINIQDLLSCS [MATN2]

>  <CLASSIFICATION>
top range

$$$$
>  <ITEM_SEQUENCE>
PTFMIAVFLPIVVLIFKSILFLPC [STEAP1]

>  <CLASSIFICATION>
center range

$$$$
>  <ITEM_SEQUENCE>
TDPGDVPAFLKWLSLASLLVYVAA [SLC2A12]

>  <CLASSIFICATION>
bottom range

$$$$
>  <ITEM_SEQUENCE>
LIPGDAYTDYVATRWYRAPELLVG [CDKL4]

>  <CLASSIFICATION>
bottom range

$$$$
>  <ITEM_SEQUENCE>
KRGGNCPAPAPLVPQDPDLEEEEE [ZBTB22]

>  <CLASSIFICATION>
top range

$$$$
>  <ITEM_SEQUENCE>
AYMDRRDHPLPEVAHVKHLSASQK [COX4I1]

>  <CLASSIFICATION>
top range

$$$$
>  <ITEM_SEQUENCE>
IKKIEEHAPGVPKILVGNRLHLAF [RAB40A]

>  <CLASSIFICATION>
bottom range

$$$$
>  <ITEM_SEQUENCE>
DDAGTSGGPSSPPSDPPAMSPGPL [C2CD2L]

>  <CLASSIFICATION>
top range

$$$$
>  <ITEM_SEQUENCE>
QEHKTDEMHTALMEACMDGHVEVA [ANKRD17]

>  <CLASSIFICATION>
top range

$$$$
>  <ITEM_SEQUENCE>
KEHWTPEGHSIVGFAMYYFTYDPW [SAT1]

>  <CLASSIFICATION>
center range

$$$$
>  <ITEM_SEQUENCE>
SYKIEEISPSTLKNSLFPSPISSI [KCNK9]

>  <CLASSIFICATION>
bottom range

$$$$
